Test system: B6C3F1 mice, B16 melanoma ip, median survival T/C
method description: NCI In Vivo Anticancer Drug Screen. Data for tumor model B16 Melanoma (intraperitoneal) in B6C3F1 mice
condition: endpoint: median survival time; dose: 100.0 mg/kg/injection; schedule: Q01DX009 (ip); vehicle: saline with Tween-80; higher = longer survival
Toxic doses and inconclusive results are not listed. Where a SMILES comes first, the peptide text is derived from it. The star is where a group is joined. Cbz = O=C(OCc1ccccc1)*; Bn = c1ccc(C*)cc1
As shown below, each of these molecules has a reported T/C value.
measured parameter: T/C

>>> assay_result("CCN(CC)c1ccc(N=Nc2ccc(C)cc2)cc1")
"96 % of control"
>>> assay_result("Cc1ccc(C)c2c1CCC2C (centres undefined)")
"86 % of control"
>>> assay_result("CC1Nc2ccccc2NC1C (centres undefined)")
"96 % of control"
>>> assay_result("O=C(CO)c1ccc([N+](=O)[O-])cc1")
"93 % of control"
>>> assay_result("COC(=O)Nc1ccc(Cc2ccc(NC(=O)OC)cc2)cc1")
"150 % of control"
>>> assay_result("O=C(Nc1ccccc1CCl)Nc1ccccc1CCl")
"115 % of control"
>>> assay_result("O=C(CN1CCOCC1)Nc1nc(-c2ccc(Cl)cc2)cs1")
"103 % of control"
>>> assay_result("N#CCCN(C(=S)Nc1cccc(C(F)(F)F)c1)C1CCCCC1")
"113 % of control"
>>> assay_result("Nc1nc2ccc(NCc3ccc(C(=O)NC(CCC(=O)O)C(=O)O)cc3)cc2c(=O)[nH]1 (centres undefined)")
"93 % of control"
>>> assay_result("O=C(NC(CSCc1ccccc1)C(=O)NC(Cc1ccc(O)cc1)C(=O)O)OCc1ccccc1 (centres undefined) (Cbz-Cys(Bn)-Tyr-OH; configuration not given here)")
"90 % of control"
>>> assay_result("CC(=O)NC(Cc1ccccc1)C(=O)NC(Cc1ccccc1)C(=O)O (stereo not drawn) (Ac-Phe-Phe-OH; configuration not given here)")
"102 % of control"
>>> assay_result("CNC(=O)Oc1ccc(S(=O)(=O)c2ccc(OC(=O)NC)cc2)cc1")
"86 % of control"
>>> assay_result("CC1(C)COCN1COC1CCCCC1")
"115 % of control"
>>> assay_result("CC(C)C(NC(=O)OC(C)(C)C)C(=O)ON1C(=O)CCC1=O (centres undefined)")
"86 % of control"
